# melting point per record follows

Molecule | melting point
CC(C)(CO)Cc1cccc(C(O)c2cccc(CC(C)(C)CO)c2)c1 [Compound 6.46] | 98 to 99 °C
CC(C)(CCCCCC(O)CCCCCC(C)(C)CC(=O)c1cccnc1)COC(=O)c1cccnc1 (stereo not shown) [Compound 6.37] | 65 to 67 °C
CC(C)(CO)CCCCC(O)CCCCC(C)(C)CO [Compound 6.1] | 72 to 74 °C
CC(C)(CO)CCCCCC(O)CCCCCC(C)(C)CO [Compound 6.17] | 71 to 75 °C
CC(C)(CO)CCCCCC(O)CCCCC(C)(C)CO (stereo not shown) [Compound 6.27] | 79 to 80 °C
CC(C)(CO)CCCCCCC(O)CCCCCCC(C)(C)CO [Compound 6.32] | 75 to 77 °C
CC(C)(CO)CCCCC(CCCCC(C)(C)CO)C(C)(C)O [Compound 6.12] | 72 to 74 °C

----------
- System: obese female Zucker rats
- Test Details: Oral daily treatment of obese female Zucker rats for fourteen days: serum lipids, glycemic control indicators, body weight
- Type: in vivo, rat
- Condition Parameters: Rattus norvegicus, 336 h, serum total cholesterol, 100 mg/kg/day oral, read-out: TC (Percent of Pre-treatment)
Metric: change in vivo at 100 mg/kg

Compound | Metric | Assay Result
CC(C)(CCCCC(O)CCCCC(C)(C)C(=O)O)C(=O)O [A] | change in vivo at 100 mg/kg | 14%
CC(C)(CO)CCCCC(O)CCCCC(C)(C)CO [F] | change in vivo at 100 mg/kg | 53%
CC(C)(CCCCC(CO)CCCCC(C)(C)C(=O)O)C(=O)O [K] | change in vivo at 100 mg/kg | 35%
CC(C)(CO)CCCCCCC(O)CCCCCCC(C)(C)CO [G] | change in vivo at 100 mg/kg | 21%
CC(C)(CO)CCCCCC(O)CCCCCC(C)(C)CO [Compound B] | change in vivo at 100 mg/kg | 105%
CC(C)(CCCCCC(O)CCCCCC(C)(C)C(=O)O)C(=O)O [C] | change in vivo at 100 mg/kg | 105%
CC(C)(CO)CCCCCCCC(O)CCCCCCCC(C)(C)CO [H] | change in vivo at 100 mg/kg | 61%
